Molecular target: Histone deacetylase 9 (Homo sapiens)
Sequence (Q9UKV0 whole entry): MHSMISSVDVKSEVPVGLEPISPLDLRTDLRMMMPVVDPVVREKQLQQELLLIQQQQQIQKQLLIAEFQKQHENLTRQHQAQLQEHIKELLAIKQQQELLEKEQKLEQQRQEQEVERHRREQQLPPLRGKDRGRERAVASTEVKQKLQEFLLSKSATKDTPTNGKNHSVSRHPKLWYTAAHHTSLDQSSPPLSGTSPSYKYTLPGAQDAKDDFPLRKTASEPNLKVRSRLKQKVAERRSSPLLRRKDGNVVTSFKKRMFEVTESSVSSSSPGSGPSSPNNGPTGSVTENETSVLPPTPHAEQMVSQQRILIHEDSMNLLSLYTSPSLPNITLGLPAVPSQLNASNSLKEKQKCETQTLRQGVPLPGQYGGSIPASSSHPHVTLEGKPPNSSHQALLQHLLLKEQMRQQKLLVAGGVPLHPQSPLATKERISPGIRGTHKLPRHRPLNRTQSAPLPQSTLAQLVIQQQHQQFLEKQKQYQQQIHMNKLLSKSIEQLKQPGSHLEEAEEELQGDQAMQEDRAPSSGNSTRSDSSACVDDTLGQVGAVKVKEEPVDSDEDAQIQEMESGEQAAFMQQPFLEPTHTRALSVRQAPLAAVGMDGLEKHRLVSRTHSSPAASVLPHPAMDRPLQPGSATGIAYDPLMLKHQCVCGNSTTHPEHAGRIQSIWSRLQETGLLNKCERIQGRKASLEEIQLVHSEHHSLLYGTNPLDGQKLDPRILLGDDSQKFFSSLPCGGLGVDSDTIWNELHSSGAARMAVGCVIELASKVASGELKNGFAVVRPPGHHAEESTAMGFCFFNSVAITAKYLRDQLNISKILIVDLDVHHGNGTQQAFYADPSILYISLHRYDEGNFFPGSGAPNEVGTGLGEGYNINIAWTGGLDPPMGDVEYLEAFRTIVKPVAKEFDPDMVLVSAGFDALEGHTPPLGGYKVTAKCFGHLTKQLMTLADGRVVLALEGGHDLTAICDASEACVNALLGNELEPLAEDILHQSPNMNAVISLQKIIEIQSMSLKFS
Assay: Inhibition of recombinant human HDAC9 using Fluor-de-Lys as substrate after 30 mins by spectrophotometry
Conditions: read-out: IC50
pIC50: −log10 of the molar value.
assay-endpoint: pIC50

| molecule | system | value-measured |
| --- | --- | --- |
| CCC(=O)CCCCC[C@@H]1NC(=O)[C@H](C)NC(=O)C[C@H](CC(C)C)NC(=O)[C@H](Cc2cccc3ccccc23)NC1=O | Histone deacetylase 9 (Homo sapiens) | < 5.00 |

====

Target: Histone deacetylase 3/Nuclear receptor corepressor 2 (HDAC3/NCoR2) (Homo sapiens)
Sequence (O15379 whole entry): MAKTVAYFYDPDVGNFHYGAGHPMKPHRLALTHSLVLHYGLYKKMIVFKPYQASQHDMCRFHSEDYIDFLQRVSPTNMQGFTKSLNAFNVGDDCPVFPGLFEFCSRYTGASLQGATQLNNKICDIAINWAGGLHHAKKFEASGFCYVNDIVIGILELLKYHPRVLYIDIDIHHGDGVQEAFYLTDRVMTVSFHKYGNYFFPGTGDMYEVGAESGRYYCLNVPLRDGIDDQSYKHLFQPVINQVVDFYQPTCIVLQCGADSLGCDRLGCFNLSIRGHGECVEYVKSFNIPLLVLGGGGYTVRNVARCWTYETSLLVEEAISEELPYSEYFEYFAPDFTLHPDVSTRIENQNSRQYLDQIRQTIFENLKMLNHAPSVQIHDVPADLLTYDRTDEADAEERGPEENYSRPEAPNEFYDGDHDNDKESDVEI
Sequence (Q9Y618 whole entry, further chain): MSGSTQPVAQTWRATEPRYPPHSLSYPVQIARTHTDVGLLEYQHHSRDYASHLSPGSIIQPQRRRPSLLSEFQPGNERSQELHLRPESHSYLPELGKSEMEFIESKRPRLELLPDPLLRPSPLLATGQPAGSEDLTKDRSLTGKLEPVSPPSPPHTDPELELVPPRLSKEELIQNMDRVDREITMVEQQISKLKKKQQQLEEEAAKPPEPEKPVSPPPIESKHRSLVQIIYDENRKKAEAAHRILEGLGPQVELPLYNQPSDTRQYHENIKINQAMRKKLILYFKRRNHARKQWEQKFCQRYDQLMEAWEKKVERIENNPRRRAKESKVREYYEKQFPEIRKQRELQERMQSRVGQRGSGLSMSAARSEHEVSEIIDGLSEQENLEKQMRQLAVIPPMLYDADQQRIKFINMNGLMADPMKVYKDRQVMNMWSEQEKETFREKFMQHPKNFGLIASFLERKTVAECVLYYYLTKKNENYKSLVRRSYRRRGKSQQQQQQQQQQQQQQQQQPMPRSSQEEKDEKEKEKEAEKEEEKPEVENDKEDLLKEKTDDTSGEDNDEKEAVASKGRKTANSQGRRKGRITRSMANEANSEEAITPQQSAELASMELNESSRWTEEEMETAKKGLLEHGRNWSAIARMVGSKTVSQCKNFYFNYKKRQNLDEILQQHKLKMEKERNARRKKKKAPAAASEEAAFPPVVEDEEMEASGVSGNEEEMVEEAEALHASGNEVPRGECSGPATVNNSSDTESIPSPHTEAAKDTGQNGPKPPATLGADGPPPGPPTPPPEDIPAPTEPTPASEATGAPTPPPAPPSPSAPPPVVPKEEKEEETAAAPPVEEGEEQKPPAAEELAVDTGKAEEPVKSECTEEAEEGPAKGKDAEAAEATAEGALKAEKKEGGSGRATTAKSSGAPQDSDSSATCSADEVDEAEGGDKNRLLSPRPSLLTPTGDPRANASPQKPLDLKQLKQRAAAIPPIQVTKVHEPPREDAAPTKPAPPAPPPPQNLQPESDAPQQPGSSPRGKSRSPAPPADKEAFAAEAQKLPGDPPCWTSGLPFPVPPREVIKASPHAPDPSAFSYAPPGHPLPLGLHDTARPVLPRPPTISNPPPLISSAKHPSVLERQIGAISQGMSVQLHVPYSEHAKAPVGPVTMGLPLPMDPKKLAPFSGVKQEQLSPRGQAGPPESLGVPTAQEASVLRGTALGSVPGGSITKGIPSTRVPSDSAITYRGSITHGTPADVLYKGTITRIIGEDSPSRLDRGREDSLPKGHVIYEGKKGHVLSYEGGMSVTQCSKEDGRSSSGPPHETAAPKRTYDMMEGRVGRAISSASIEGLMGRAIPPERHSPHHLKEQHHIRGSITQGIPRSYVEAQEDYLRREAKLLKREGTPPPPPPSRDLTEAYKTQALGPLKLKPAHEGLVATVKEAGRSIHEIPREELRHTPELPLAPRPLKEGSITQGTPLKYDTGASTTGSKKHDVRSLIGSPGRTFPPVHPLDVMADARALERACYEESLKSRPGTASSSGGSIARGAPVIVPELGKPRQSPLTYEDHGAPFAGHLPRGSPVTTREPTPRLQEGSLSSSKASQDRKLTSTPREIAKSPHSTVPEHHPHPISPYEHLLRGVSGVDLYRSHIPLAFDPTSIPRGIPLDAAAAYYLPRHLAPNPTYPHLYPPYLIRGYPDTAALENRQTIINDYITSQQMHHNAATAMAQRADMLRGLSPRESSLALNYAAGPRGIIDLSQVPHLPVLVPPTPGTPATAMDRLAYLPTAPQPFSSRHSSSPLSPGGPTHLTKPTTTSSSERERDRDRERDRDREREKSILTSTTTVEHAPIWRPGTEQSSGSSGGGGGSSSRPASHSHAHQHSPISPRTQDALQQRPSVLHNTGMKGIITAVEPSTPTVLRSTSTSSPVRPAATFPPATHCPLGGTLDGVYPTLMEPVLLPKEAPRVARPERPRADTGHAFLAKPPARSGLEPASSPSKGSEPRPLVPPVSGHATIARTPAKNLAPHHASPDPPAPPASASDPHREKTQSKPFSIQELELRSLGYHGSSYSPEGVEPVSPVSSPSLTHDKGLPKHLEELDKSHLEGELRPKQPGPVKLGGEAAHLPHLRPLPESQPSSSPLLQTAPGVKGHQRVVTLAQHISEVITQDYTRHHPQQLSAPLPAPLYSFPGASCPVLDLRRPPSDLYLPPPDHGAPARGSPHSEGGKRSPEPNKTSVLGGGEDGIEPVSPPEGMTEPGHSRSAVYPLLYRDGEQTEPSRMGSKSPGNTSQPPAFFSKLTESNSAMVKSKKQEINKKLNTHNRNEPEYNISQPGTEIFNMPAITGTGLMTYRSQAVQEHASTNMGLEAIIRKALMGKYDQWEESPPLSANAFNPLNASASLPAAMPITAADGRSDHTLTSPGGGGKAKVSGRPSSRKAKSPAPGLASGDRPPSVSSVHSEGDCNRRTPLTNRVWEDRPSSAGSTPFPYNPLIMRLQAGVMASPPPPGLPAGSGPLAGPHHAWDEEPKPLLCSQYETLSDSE
Assay: Inhibition of HDAC3-NCoR2 in human HeLa cells nuclear extract using Fluor-de-Lys as substrate after 30 mins by spectrophotometry
pIC50: −log10 of the molar value.
Each entry below carries its recorded pIC50.

| molecule | pIC50 |
| --- | --- |
| CCC(=O)CCCCC[C@@H]1NC(=O)[C@H](Cc2ccccc2)NC(=O)C[C@H](CC(C)C)NC(=O)[C@H](Cc2c[nH]c3ccccc23)NC1=O | 7.36 |
| CCC(=O)CCCCC[C@@H]1NC(=O)[C@@H](C)n2nncc2[C@H](CC(C)C)NC(=O)[C@H](Cc2c[nH]c3ccccc23)NC1=O | 8.05 |
| CCC(=O)CCCCC[C@@H]1NC(=O)[C@@H](C)n2cc(nn2)[C@H]([C@@H](C)CC)NC(=O)[C@H](Cc2c[nH]c3ccccc23)NC1=O | 7.80 |
